# System: MALME-3M melanoma
# protocolDetails: NCI tumour cell line growth inhibition, 48 h
Where a SMILES comes first, the peptide text is derived from it. The star is where a group is joined. Trt = c1ccc(C(c2ccccc2)(c2ccccc2)*)cc1; Cbz = O=C(OCc1ccccc1)*
Task for the reader: assign each of the following compounds its reported TGI.
Your answer should be a plain number; it is taken to be in µM.

Given O=C1/C(=C\c2ccccc2)C2OCC=C3CN4CCC56c7ccccc7N1C5C2C3CC46 (stereo not given) , state its recorded TGI. 17.9

Given COC(=O)C(CSC(c1ccccc1)(c1ccccc1)c1ccccc1)NC(=O)C(CC(N)=O)NC(=O)OCc1ccccc1 (stereo not drawn) (Cbz-Asn-Cys(Trt)-OMe; configuration not given here) , state its recorded TGI. 12.1

Given CN(C)/C=C/C=C(/C=N/S(=O)(=O)C(F)(F)F)C1C=CN(S(=O)(=O)C(F)(F)F)C=C1 , state its recorded TGI. 82.7

Given CC1=C(N2CC2)C(=O)c2ccccc2C1=O , state its recorded TGI. 2.65
